Reported Percent parent compound remaining at 60 minutes in liver microsomes, Human values follow for various compounds
Protocol Conditions: 1 h, pH 7.4
Reported Metric: Percent parent compound remaining at 60 minutes in liver microsomes, Human

[[record]]
structure_string = "CC(C)Oc1ccc(-c2cc3c(cc2F)nnn3-c2ccc(OC(C)C)cc2)cc1"
readout_value = "79.5%"

[[record]]
structure_string = "Cc1cc2ncn(-c3ccc(OC(C)(C)C)cc3)c2cc1-c1ccc(C(C)(C)O)cc1"
readout_value = "68.3%"

[[record]]
structure_string = "Cc1cc2ncn(-c3ccc(OC(C)(C)C)cc3)c2cc1-c1ccc(OC(C)C)cc1"
readout_value = "95%"

[[record]]
structure_string = "CC(C)Oc1ccc(-c2cc3c(cc2Cl)nnn3-c2ccc(OC(C)C)cc2)cc1"
readout_value = ">95%"


Values from patent US12419865B2
